system: Hepatocyte; assay: Intrinsic clearance in rat hepatocytes assessed per 10^6 cells; format: ADME, cell-based
reportedMetric: CLint (µL/min/1e6 cells)

(Q) Query: CLint; subject: COCC[C@H](Oc1ncnc2c1cnn2-c1ccccc1Cl)C(=O)Nc1ccc(C)cn1
(A) 35

A. COCC[C@H](Oc1ncnc2c1cnn2-c1ccccc1C(F)(F)F)C(=O)Nc1ccc(C)cn1
B. COCC[C@H](Oc1ncnc2c1cnn2-c1ccccc1OC)C(=O)Nc1ccc(C)cn1
(Q) # compare CLint for A vs B ; return the one with the smaller value Answer by quoting the chosen item's label.
(A) A

----------
Biological target: UniProtKB P35557
Sequence (P35557 whole entry): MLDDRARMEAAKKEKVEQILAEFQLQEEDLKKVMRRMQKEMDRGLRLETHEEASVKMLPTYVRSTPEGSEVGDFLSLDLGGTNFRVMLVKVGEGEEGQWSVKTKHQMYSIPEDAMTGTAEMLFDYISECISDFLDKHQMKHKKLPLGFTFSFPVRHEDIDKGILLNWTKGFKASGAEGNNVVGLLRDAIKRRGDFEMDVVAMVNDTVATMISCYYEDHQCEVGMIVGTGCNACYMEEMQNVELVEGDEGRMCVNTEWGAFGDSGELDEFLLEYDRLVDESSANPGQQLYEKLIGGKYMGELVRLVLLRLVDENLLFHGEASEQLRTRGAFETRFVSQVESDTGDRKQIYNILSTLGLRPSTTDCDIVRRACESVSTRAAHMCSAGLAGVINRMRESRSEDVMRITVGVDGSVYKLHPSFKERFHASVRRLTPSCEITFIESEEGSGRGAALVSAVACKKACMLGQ
Assay: Activation of human glucokinase
reportedMetric: EC50 (nM)

(Q) Query: EC50; subject: COCCC(Oc1ncnc2c1cnn2-c1ccccc1Cl)C(=O)Nc1ccc(C)cn1 (racemic)
(A) 100

A. Cc1csc(NC(=O)COc2ncnc3c2cnn3-c2ccccc2Cl)n1
B. CCCCC(Sc1ncnc2c1cnn2-c1ccccc1Cl)C(=O)Nc1nc(C)cs1 (racemic)
C. COCCOCCC(Sc1ncnc2c1cnn2-c1ccccc1Cl)C(=O)Nc1nc(C)cs1 (racemic)
(Q) Could you please order the items by EC50, going from the lowest number to the highest? To answer, arrange all of the labels according to the requested order.
(A) B, A, C

----------
experiment: Octanol-water partition coefficient, log D of the compound by HPLC analysis
reportedMetric: logD

Previously resolved entries follow.
(Q) Query: logD; subject: Cc1csc(NC(=O)COc2ncnc3c2cnn3-c2ccccc2Cl)n1
(A) 3.2

(Q) Next molecule up: Cc1csc(NC(=O)CSc2ncnc3c2cnn3-c2ccccc2Cl)n1
(A) 3.8

(Q) Next molecule up: Cc1ccc(NC(=O)CSc2ncnc3c2cnn3-c2ccccc2Cl)nc1
(A) 4.2

A. COCCC(Oc1ncnc2c1cnn2-c1ccccc1Cl)C(=O)Nc1ccc(C)cn1 (racemic)
B. Cn1ccc(NC(=O)CSc2ncnc3c2cnn3-c2ccccc2Cl)n1
(Q) # compare logD for A vs B ; return the one with the smaller value Answer by quoting the chosen item's label.
(A) B
(B: 2.5, A: 4.1)

----------
assay: Volume of distribution at steady state in rat; assay type: ADME, organism-based; conditions: in vivo, read-out: Vdss
reportedMetric: Vd (L/kg)
Please reply with the bare figure in L/kg and do not write the unit itself.

(Q) Query: Vd; subject: COCC[C@H](Oc1ncnc2c1cnn2-c1ccccc1Cl)C(=O)Nc1ccc(C)cn1
(A) 3.2

Where do these numbers come from? They come from ChEMBL document CHEMBL2202962.
